These compounds were tested on HDAC8 (Homo sapiens, UniProt Q9BY41); IC50 is the recorded read-out.
Sequence (Q9BY41 whole entry, species assumed): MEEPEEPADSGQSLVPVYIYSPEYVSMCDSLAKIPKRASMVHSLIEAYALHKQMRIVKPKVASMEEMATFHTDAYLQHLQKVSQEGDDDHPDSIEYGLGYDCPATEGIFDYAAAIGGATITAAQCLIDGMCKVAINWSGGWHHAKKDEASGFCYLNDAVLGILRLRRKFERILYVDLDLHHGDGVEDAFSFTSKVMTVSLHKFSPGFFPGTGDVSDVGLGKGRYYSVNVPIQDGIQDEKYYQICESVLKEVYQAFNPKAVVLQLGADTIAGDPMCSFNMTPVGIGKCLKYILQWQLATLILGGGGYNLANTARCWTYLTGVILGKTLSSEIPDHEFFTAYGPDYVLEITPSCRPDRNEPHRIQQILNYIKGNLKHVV
Output spec: scalar in nM, unitless text.

compound | system tested | units symbol | IC50
O=C(NO)c1ccc(NCc2csc3cc(Br)ccc23)cc1 [Compound 13a] | HDAC8 (Homo sapiens, UniProt Q9BY41) | nM | 1900

Ask: Hello, I am looking for reported IC50 with HDAC8 (Homo sapiens, UniProt Q9BY41) for `O=C(NO)c1ccc(NCc2csc3ccc(Br)cc23)cc1` . Could you help?
Reply: 2100

Ask: Hello, I am looking for reported IC50 with HDAC8 (Homo sapiens, UniProt Q9BY41) for `O=C(NO)c1ccc(NCc2csc3ccccc23)cc1` . Could you help?
Reply: 1400
